assay procedure: Cell Viability - LYMP2-021 (AID 974);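 also: compound exposure lasts 24 hours at 37 °C; nearly all actives have a fitted effect of over 55% in size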
condition description: LYMP2-021 lymphoblastoid cells viability; series mostly up to 92.2 µM
Records with an inconclusive call do not appear. The source made the active and inactive calls. Calls follow the shape of the dose curve; as a rule, active = well fitted cell-killing curve with a large enough effect; inconclusive = small, poorly fitted or top-dose-only effect; inactive = flat fitted curve, though single readings scatter.
Please answer using one outcome listed in 1.0 = active, 0.0 = inactive

The examples below pair each entry with its known result.
structure string: CC(C)(OO)c1ccccc1
class assignment: 1.0

structure string: O=NN(CCO)CCO
class assignment: 0.0

input: Which result was noted for this compound in the test: COc1ccc(C=O)cc1OC
output: 0.0

input: Which result was noted for this compound in the test: Nc1ccccc1Cl
output: 0.0

input: Which result was noted for this compound in the test: c1ccc(-c2ccccc2)cc1
output: 0.0
